Ref: ChEMBL document CHEMBL2057108

measurement_target: 5-hydroxytryptamine receptor 4 (Homo sapiens)
protocol_details: Agonist activity at human 5HT4C receptor expressed at 100 fold physiological-level in HEK293 cells assessed as cAMP accumulation
Type: functional, cell-based
As shown below, each of these compounds has a reported EC50 value.
Write the number in nM without appending the unit.

Observe how each entry below is paired with its result.
INSERT INTO results (compound, measurement_target, observed_measurement) VALUES
  ('CC(=O)N1CCN(CCN2[C@@H]3CC[C@H]2C[C@@H](NC(=O)c2nn(C(C)C)c4ccccc24)C3)CC1', '5-hydroxytryptamine receptor 4 (Homo sapiens)', 2.51),
  ('CC(C)n1nc(C(=O)N[C@H]2C[C@H]3CC[C@@H](C2)N3CCN2CCN(S(C)(=O)=O)CC2)c2ccccc21', '5-hydroxytryptamine receptor 4 (Homo sapiens)', 3.98),
  ('CC(C)n1nc(C(=O)N[C@H]2C[C@H]3CC[C@@H](C2)N3CCCCCCN2CCC(CNS(C)(=O)=O)CC2)c2ccccc21', '5-hydroxytryptamine receptor 4 (Homo sapiens)', 1.58);

Query string: Could you share which EC50 value was measured for COC[C@@H]1CCCN1CC(O)CN1[C@@H]2CC[C@H]1C[C@@H](NC(=O)c1nn(C(C)C)c3ccccc13)C2 (stereo partly specified) ?
Result string: 2.51

Query string: Now the compound CC(C)n1nc(C(=O)N[C@H]2C[C@H]3CC[C@@H](C2)N3CC(O)CN2CCN(S(C)(=O)=O)CC2)c2ccccc21 (stereo partly specified)
Result string: 0.794

Query string: Now the compound CC(C)n1nc(C(=O)N[C@H]2C[C@H]3CC[C@@H](C2)N3C[C@@H](O)CN2CCN(S(C)(=O)=O)CC2)c2ccccc21
Result string: 0.398

Query string: Now the compound COC[C@@H]1CCCN1CCCCCCN1[C@@H]2CC[C@H]1C[C@@H](NC(=O)c1nn(C(C)C)c3ccccc13)C2
Result string: 0.794

Query string: Now the compound CCCCCNC(=N)N/N=C/c1c[nH]c2ccc(OC)cc12 [TEGASEROD]
Result string: 1

Query string: Now the compound CC(C)n1nc(C(=O)N[C@H]2C[C@H]3CC[C@@H](C2)N3CC(O)CN2CCCCC2)c2ccccc21 (stereo partly specified)
Result string: 2

Query string: Now the compound CC(C)N(C)CCCCCCN1[C@@H]2CC[C@H]1C[C@@H](NC(=O)c1nn(C(C)C)c3ccccc13)C2
Result string: 5.01

Query string: Now the compound CC(C)n1nc(C(=O)N[C@H]2C[C@H]3CC[C@@H](C2)N3C[C@H](O)CN2CCN(S(C)(=O)=O)CC2)c2ccccc21
Result string: 0.794

---

measurement_target: 5-hydroxytryptamine receptor 4 (Homo sapiens)
As shown below, each of these molecules has a reported pKi value.
# pKi = -log10(concentration in molar units)

Observe how each entry below is paired with its result.
INSERT INTO results (molecule, observation_type, observed_measurement) VALUES
  ('CC(C)n1nc(C(=O)N[C@H]2C[C@H]3CC[C@@H](C2)N3CCCCCCN2CCC(CNS(C)(=O)=O)CC2)c2ccccc21', 'pKi', 8.80),
  ('CC(C)n1nc(C(=O)N[C@H]2C[C@H]3CC[C@@H](C2)N3CCN2CCN(S(C)(=O)=O)CC2)c2ccccc21', 'pKi', 7.90),
  ('CC(C)n1nc(C(=O)N[C@H]2C[C@H]3CC[C@@H](C2)N3C[C@H](O)CN2CCN(S(C)(=O)=O)CC2)c2ccccc21', 'pKi', 8.10),
  ('CC(C)n1nc(C(=O)N[C@H]2C[C@H]3CC[C@@H](C2)N3CCCCCCN2CCCCC2)c2ccccc21', 'pKi', 9.00),
  ('CC(C)N(C)CC(O)CN1[C@@H]2CC[C@H]1C[C@@H](NC(=O)c1nn(C(C)C)c3ccccc13)C2 (some centres undefined)', 'pKi', 8.40),
  ('CC(C)n1nc(C(=O)N[C@H]2C[C@H]3CC[C@@H](C2)N3CCCCCCN2CCN(S(C)(=O)=O)CC2)c2ccccc21', 'pKi', 8.60),
  ('CC(C)N(C)CCCCCCN1[C@@H]2CC[C@H]1C[C@@H](NC(=O)c1nn(C(C)C)c3ccccc13)C2', 'pKi', 9.00),
  ('CC(=O)N1CCN(CCN2[C@@H]3CC[C@H]2C[C@@H](NC(=O)c2nn(C(C)C)c4ccccc24)C3)CC1', 'pKi', 8.00);

Query string: Checklist item: pKi tested on 5-hydroxytryptamine receptor 4 (Homo sapiens), entry CC(C)n1nc(C(=O)N[C@H]2C[C@H]3CC[C@@H](C2)N3C[C@@H](O)CN2CCN(S(C)(=O)=O)CC2)c2ccccc21 , value?
Result string: 8.60

Query string: Now the molecule COC[C@@H]1CCCN1CC(O)CN1[C@@H]2CC[C@H]1C[C@@H](NC(=O)c1nn(C(C)C)c3ccccc13)C2 (some centres undefined)
Result string: 8.40

Query string: Now the molecule CC(C)n1nc(C(=O)N[C@H]2C[C@H]3CC[C@@H](C2)N3CC(O)CN2CCC(CNS(C)(=O)=O)CC2)c2ccccc21 (some centres undefined)
Result string: 8.60

Query string: Now the molecule CC(C)n1nc(C(=O)N[C@H]2C[C@H]3CC[C@@H](C2)N3CC(O)CN2CCCCC2)c2ccccc21 (some centres undefined)
Result string: 8.70

Query string: Now the molecule CC(C)n1nc(C(=O)N[C@H]2C[C@H]3CC[C@@H](C2)N3CC(O)CN2CCN(S(C)(=O)=O)CC2)c2ccccc21 (some centres undefined)
Result string: 8.40

Query string: Now the molecule COC[C@@H]1CCCN1CCCCCCN1[C@@H]2CC[C@H]1C[C@@H](NC(=O)c1nn(C(C)C)c3ccccc13)C2
Result string: 9.10

---

As shown below, each of these compounds has a reported pEC50 value.
measurement_target: 5-hydroxytryptamine receptor 4 (Homo sapiens, UniProt Q13639)
Sequence (Q13639 whole entry): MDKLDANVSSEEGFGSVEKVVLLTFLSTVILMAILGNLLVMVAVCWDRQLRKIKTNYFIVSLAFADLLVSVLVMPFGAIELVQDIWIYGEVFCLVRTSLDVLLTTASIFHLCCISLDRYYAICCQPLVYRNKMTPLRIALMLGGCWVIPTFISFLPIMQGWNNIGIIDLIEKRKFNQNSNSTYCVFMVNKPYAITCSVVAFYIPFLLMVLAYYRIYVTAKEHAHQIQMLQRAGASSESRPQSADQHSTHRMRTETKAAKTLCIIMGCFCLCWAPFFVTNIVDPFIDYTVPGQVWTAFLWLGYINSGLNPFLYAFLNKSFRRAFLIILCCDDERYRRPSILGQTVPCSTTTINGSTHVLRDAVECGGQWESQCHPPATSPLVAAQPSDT
protocol_details: Agonist activity at human 5HT4C receptor expressed at 100 fold physiological-level in HEK293 cells assessed as cAMP accumulation
Assay type: functional, cell-based
# pEC50 = -log10(concentration in molar units)

Observe how each entry below is paired with its result.
INSERT INTO results (compound, observed_measurement) VALUES
  ('CC(C)N(C)CC(O)CN1[C@@H]2CC[C@H]1C[C@@H](NC(=O)c1nn(C(C)C)c3ccccc13)C2 (stereo partly drawn)', 8.30),
  ('CC(C)n1nc(C(=O)N[C@H]2C[C@H]3CC[C@@H](C2)N3CCCCCCN2CCN(S(C)(=O)=O)CC2)c2ccccc21', 7.90);

Next item in the queue.
Query string: Could you share which pEC50 value was measured for CC(C)n1nc(C(=O)N[C@H]2C[C@H]3CC[C@@H](C2)N3CC(O)CN2CCC(CNS(C)(=O)=O)CC2)c2ccccc21 (stereo partly drawn) ?
Result string: 9.20

---

protocol_details: Half life in rat liver microsomes
Format: ADME, Microsome
protocol_conditions: liver microsomes
observation_type: half-life

Observe how each entry below is paired with its result.
INSERT INTO measurements (compound, observed_measurement) VALUES
  ('CC(C)n1nc(C(=O)N[C@H]2C[C@H]3CC[C@@H](C2)N3CCN2CCN(S(C)(=O)=O)CC2)c2ccccc21', '> 1.5 h'),
  ('CC(=O)N1CCN(CCN2[C@@H]3CC[C@H]2C[C@@H](NC(=O)c2nn(C(C)C)c4ccccc24)C3)CC1', '> 1.5 h');

Next item in the queue.
Query string: Could you share which half-life value was measured for CC(C)n1nc(C(=O)N[C@H]2C[C@H]3CC[C@@H](C2)N3CC(O)CN2CCN(S(C)(=O)=O)CC2)c2ccccc21 (stereo partly drawn) ?
Result string: > 1.5 h

---

Organism: Homo sapiens
protocol_details: Selectivity ratio of Ki for human 5HT3A receptor to Ki for human 5HT4C receptor
Criterion: Ratio Ki meeting or surpassing 1000. Met: condition met. Not met: condition not met.

INSERT INTO measurements (compound, qualitative_label) VALUES
  ('CC(C)n1nc(C(=O)N[C@H]2C[C@H]3CC[C@@H](C2)N3CCN2CCN(S(C)(=O)=O)CC2)c2ccccc21', 'condition not met'),
  ('CC(C)N(C)CC(O)CN1[C@@H]2CC[C@H]1C[C@@H](NC(=O)c1nn(C(C)C)c3ccccc13)C2 (stereo partly specified)', 'condition met'),
  ('CC(C)n1nc(C(=O)N[C@H]2C[C@H]3CC[C@@H](C2)N3C[C@@H](O)CN2CCN(S(C)(=O)=O)CC2)c2ccccc21', 'condition met');

From here, focus on the item given below.
Query string: In plain terms: is recorded Ratio Ki at least 1000 for CC(C)n1nc(C(=O)N[C@H]2C[C@H]3CC[C@@H](C2)N3CCCCCCN2CCC(CNS(C)(=O)=O)CC2)c2ccccc21 ?
Result string: condition not met
